biological target: BUB1B (Homo sapiens, UniProt O60566); construct: endogenous in cells; host or cells: K562; assay: KAM-matrix competition in K562 lysate; format: binding; conditions: KAM 0.001-10 uM, read-out: RB50 (the source's name)
pIC50: −log10 of the molar value.
METRIC NAME: pIC50

N#CCc1ccc(Nc2nc(NCCCN)cc(Nc3cc(C4CC4)[nH]n3)n2)cc1 has a reported pIC50 of < 5.00

* * *

target: SRPK1 (Homo sapiens, UniProt Q96SB4); construct: endogenous in cells; assay: KAM-matrix competition in K562 lysate; conditions: KAM 0.001-10 uM, read-out: RB50 (the source's name)
METRIC NAME: IC50

N#CCc1ccc(Nc2nc(NCCCN)cc(Nc3cc(C4CC4)[nH]n3)n2)cc1 has a reported IC50 of > 10 µM

* * *

biological target: SPEG (Homo sapiens); construct: endogenous in cells; host or cells: K562; assay: KAM-matrix competition in K562 lysate; format: binding; settings: KAM 0.001-10 uM, read-out: RB50 (the source's name)
METRIC NAME: IC50

N#CCc1ccc(Nc2nc(NCCCN)cc(Nc3cc(C4CC4)[nH]n3)n2)cc1 [KAM] has a reported IC50 of > 10 µM

* * *

molecular target: MAP4K3 (Homo sapiens, UniProt Q8IVH8); construct: endogenous in cells; assay: KAM-matrix competition in K562 lysate; settings: read-out: RB50 (the source's name)
METRIC NAME: pIC50
Formally, pIC50 is defined as -log10 of the concentration c, with c in mol/L.

N#CCc1ccc(Nc2nc(NCCCN)cc(Nc3cc(C4CC4)[nH]n3)n2)cc1 has a reported pIC50 of 6.33

* * *

target: ADRBK1 (Homo sapiens); construct: endogenous in cells; assay: KAM-matrix competition in K562 lysate; settings: KAM 0.001-10 uM, read-out: RB50 (the source's name)
pIC50: −log10 of the molar value.
METRIC NAME: pIC50

N#CCc1ccc(Nc2nc(NCCCN)cc(Nc3cc(C4CC4)[nH]n3)n2)cc1 has a reported pIC50 of < 5.00

* * *

molecular target: PIK3R4 (Homo sapiens); construct: endogenous in cells; host or cells: K562; assay: KAM-matrix competition in K562 lysate; format: binding; conditions: KAM 0.001-10 uM, read-out: RB50 (the source's name)
pIC50: −log10 of the molar value.
METRIC NAME: pIC50

N#CCc1ccc(Nc2nc(NCCCN)cc(Nc3cc(C4CC4)[nH]n3)n2)cc1 [KAM] has a reported pIC50 of < 5.00

* * *

target: TAOK3 (Homo sapiens, UniProt Q9H2K8); construct: endogenous in cells; assay: KAM-matrix competition in K562 lysate; details: read-out: RB50 (the source's name)
METRIC NAME: IC50 (µM)
Report the figure in µM without appending any unit label.

N#CCc1ccc(Nc2nc(NCCCN)cc(Nc3cc(C4CC4)[nH]n3)n2)cc1 [KAM] has a reported IC50 of 2.69

* * *

target: CSK (Homo sapiens, UniProt P41240); construct: endogenous in cells; experiment: KAM-matrix competition in K562 lysate; settings: KAM 0.001-10 uM, read-out: RB50 (the source's name)
METRIC NAME: IC50

N#CCc1ccc(Nc2nc(NCCCN)cc(Nc3cc(C4CC4)[nH]n3)n2)cc1 [KAM] has a reported IC50 of > 10 µM

* * *

biological target: TKT (Homo sapiens, UniProt P29401); construct: endogenous in cells; host or cells: K562; experiment: Dasatinib-matrix competition in K562 lysate; details: residual binding 50 value; read-out: RB50 (the source's name)
Sequence (P29401 whole entry): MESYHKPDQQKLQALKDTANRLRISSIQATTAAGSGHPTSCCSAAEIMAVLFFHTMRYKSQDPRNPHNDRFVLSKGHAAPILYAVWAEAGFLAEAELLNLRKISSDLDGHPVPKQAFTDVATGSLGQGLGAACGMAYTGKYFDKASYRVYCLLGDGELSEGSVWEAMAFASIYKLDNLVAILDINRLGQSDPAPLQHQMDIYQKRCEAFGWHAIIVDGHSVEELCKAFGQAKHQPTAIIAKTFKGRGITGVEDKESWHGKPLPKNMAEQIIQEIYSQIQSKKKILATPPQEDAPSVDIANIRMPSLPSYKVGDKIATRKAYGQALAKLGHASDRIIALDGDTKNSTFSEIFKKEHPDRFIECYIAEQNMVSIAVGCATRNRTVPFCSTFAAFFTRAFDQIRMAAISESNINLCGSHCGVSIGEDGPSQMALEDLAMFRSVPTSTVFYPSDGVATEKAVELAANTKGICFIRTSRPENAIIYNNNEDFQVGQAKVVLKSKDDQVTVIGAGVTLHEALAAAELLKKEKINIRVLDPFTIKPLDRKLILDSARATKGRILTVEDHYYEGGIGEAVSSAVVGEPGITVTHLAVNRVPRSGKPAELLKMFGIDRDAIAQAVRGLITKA
METRIC NAME: IC50

Cc1nc(Nc2ncc(C(=O)Nc3c(C)cccc3Cl)s2)cc(N2CCN(CCO)CC2)n1 [Dasatinib] has a reported IC50 of > 10 µM

* * *

target: HIPK1 (Homo sapiens, UniProt Q86Z02); construct: endogenous in cells; assay: KAM-matrix competition in K562 lysate; conditions: read-out: RB50 (the source's name)
METRIC NAME: pIC50
Formally, pIC50 is defined as -log10 of the concentration c, with c in mol/L.

N#CCc1ccc(Nc2nc(NCCCN)cc(Nc3cc(C4CC4)[nH]n3)n2)cc1 [KAM] has a reported pIC50 of 6.11

* * *

target: ADCK3 (Homo sapiens, UniProt Q8NI60); construct: endogenous in cells; host or cells: K562; assay: KAM-matrix competition in K562 lysate; type: binding; conditions: KAM 0.001-10 uM, read-out: RB50 (the source's name)
METRIC NAME: IC50

N#CCc1ccc(Nc2nc(NCCCN)cc(Nc3cc(C4CC4)[nH]n3)n2)cc1 has a reported IC50 of > 10 µM

* * *

biological target: NEK8 (Homo sapiens); construct: endogenous in cells; assay: KAM-matrix competition in K562 lysate; conditions: read-out: RB50 (the source's name)
METRIC NAME: IC50 (nM)
Report the figure in nM without appending any unit label.

N#CCc1ccc(Nc2nc(NCCCN)cc(Nc3cc(C4CC4)[nH]n3)n2)cc1 [KAM] has a reported IC50 of 861

* * *

biological target: BTK (Homo sapiens, UniProt Q06187); construct: endogenous in cells; assay: KAM-matrix competition in K562 lysate; settings: read-out: RB50 (the source's name)
METRIC NAME: IC50 (nM)
Report the figure in nM without appending any unit label.

N#CCc1ccc(Nc2nc(NCCCN)cc(Nc3cc(C4CC4)[nH]n3)n2)cc1 has a reported IC50 of 566

* * *

target: SYK (Homo sapiens); construct: K562 cell pellets were thawed on ice and resuspended in cold Lysis buffer; endogenous in cells; host or cells: K562; test: KAM-matrix competition in K562 lysate; assay type: binding; conditions: read-out: RB50 (the source's name)
METRIC NAME: IC50

N#CCc1ccc(Nc2nc(NCCCN)cc(Nc3cc(C4CC4)[nH]n3)n2)cc1 has a reported IC50 of 0.714 µM

* * *

biological target: EIF2AK4 (Homo sapiens); construct: endogenous in cells; assay: KAM-matrix competition in K562 lysate; settings: KAM 0.001-10 uM, read-out: RB50 (the source's name)
METRIC NAME: IC50

N#CCc1ccc(Nc2nc(NCCCN)cc(Nc3cc(C4CC4)[nH]n3)n2)cc1 [KAM] has a reported IC50 of > 10 µM

* * *

target: PRKCB (Homo sapiens); construct: endogenous in cells; test: KAM-matrix competition in K562 lysate; conditions: read-out: RB50 (the source's name)
METRIC NAME: pIC50
Formally, pIC50 is defined as -log10 of the concentration c, with c in mol/L.

N#CCc1ccc(Nc2nc(NCCCN)cc(Nc3cc(C4CC4)[nH]n3)n2)cc1 has a reported pIC50 of 6.45

* * *

target: PKD1 (Homo sapiens); construct: endogenous in cells; assay: KAM-matrix competition in K562 lysate; details: KAM 0.001-10 uM, read-out: RB50 (the source's name)
Sequence (P98161 24-4303): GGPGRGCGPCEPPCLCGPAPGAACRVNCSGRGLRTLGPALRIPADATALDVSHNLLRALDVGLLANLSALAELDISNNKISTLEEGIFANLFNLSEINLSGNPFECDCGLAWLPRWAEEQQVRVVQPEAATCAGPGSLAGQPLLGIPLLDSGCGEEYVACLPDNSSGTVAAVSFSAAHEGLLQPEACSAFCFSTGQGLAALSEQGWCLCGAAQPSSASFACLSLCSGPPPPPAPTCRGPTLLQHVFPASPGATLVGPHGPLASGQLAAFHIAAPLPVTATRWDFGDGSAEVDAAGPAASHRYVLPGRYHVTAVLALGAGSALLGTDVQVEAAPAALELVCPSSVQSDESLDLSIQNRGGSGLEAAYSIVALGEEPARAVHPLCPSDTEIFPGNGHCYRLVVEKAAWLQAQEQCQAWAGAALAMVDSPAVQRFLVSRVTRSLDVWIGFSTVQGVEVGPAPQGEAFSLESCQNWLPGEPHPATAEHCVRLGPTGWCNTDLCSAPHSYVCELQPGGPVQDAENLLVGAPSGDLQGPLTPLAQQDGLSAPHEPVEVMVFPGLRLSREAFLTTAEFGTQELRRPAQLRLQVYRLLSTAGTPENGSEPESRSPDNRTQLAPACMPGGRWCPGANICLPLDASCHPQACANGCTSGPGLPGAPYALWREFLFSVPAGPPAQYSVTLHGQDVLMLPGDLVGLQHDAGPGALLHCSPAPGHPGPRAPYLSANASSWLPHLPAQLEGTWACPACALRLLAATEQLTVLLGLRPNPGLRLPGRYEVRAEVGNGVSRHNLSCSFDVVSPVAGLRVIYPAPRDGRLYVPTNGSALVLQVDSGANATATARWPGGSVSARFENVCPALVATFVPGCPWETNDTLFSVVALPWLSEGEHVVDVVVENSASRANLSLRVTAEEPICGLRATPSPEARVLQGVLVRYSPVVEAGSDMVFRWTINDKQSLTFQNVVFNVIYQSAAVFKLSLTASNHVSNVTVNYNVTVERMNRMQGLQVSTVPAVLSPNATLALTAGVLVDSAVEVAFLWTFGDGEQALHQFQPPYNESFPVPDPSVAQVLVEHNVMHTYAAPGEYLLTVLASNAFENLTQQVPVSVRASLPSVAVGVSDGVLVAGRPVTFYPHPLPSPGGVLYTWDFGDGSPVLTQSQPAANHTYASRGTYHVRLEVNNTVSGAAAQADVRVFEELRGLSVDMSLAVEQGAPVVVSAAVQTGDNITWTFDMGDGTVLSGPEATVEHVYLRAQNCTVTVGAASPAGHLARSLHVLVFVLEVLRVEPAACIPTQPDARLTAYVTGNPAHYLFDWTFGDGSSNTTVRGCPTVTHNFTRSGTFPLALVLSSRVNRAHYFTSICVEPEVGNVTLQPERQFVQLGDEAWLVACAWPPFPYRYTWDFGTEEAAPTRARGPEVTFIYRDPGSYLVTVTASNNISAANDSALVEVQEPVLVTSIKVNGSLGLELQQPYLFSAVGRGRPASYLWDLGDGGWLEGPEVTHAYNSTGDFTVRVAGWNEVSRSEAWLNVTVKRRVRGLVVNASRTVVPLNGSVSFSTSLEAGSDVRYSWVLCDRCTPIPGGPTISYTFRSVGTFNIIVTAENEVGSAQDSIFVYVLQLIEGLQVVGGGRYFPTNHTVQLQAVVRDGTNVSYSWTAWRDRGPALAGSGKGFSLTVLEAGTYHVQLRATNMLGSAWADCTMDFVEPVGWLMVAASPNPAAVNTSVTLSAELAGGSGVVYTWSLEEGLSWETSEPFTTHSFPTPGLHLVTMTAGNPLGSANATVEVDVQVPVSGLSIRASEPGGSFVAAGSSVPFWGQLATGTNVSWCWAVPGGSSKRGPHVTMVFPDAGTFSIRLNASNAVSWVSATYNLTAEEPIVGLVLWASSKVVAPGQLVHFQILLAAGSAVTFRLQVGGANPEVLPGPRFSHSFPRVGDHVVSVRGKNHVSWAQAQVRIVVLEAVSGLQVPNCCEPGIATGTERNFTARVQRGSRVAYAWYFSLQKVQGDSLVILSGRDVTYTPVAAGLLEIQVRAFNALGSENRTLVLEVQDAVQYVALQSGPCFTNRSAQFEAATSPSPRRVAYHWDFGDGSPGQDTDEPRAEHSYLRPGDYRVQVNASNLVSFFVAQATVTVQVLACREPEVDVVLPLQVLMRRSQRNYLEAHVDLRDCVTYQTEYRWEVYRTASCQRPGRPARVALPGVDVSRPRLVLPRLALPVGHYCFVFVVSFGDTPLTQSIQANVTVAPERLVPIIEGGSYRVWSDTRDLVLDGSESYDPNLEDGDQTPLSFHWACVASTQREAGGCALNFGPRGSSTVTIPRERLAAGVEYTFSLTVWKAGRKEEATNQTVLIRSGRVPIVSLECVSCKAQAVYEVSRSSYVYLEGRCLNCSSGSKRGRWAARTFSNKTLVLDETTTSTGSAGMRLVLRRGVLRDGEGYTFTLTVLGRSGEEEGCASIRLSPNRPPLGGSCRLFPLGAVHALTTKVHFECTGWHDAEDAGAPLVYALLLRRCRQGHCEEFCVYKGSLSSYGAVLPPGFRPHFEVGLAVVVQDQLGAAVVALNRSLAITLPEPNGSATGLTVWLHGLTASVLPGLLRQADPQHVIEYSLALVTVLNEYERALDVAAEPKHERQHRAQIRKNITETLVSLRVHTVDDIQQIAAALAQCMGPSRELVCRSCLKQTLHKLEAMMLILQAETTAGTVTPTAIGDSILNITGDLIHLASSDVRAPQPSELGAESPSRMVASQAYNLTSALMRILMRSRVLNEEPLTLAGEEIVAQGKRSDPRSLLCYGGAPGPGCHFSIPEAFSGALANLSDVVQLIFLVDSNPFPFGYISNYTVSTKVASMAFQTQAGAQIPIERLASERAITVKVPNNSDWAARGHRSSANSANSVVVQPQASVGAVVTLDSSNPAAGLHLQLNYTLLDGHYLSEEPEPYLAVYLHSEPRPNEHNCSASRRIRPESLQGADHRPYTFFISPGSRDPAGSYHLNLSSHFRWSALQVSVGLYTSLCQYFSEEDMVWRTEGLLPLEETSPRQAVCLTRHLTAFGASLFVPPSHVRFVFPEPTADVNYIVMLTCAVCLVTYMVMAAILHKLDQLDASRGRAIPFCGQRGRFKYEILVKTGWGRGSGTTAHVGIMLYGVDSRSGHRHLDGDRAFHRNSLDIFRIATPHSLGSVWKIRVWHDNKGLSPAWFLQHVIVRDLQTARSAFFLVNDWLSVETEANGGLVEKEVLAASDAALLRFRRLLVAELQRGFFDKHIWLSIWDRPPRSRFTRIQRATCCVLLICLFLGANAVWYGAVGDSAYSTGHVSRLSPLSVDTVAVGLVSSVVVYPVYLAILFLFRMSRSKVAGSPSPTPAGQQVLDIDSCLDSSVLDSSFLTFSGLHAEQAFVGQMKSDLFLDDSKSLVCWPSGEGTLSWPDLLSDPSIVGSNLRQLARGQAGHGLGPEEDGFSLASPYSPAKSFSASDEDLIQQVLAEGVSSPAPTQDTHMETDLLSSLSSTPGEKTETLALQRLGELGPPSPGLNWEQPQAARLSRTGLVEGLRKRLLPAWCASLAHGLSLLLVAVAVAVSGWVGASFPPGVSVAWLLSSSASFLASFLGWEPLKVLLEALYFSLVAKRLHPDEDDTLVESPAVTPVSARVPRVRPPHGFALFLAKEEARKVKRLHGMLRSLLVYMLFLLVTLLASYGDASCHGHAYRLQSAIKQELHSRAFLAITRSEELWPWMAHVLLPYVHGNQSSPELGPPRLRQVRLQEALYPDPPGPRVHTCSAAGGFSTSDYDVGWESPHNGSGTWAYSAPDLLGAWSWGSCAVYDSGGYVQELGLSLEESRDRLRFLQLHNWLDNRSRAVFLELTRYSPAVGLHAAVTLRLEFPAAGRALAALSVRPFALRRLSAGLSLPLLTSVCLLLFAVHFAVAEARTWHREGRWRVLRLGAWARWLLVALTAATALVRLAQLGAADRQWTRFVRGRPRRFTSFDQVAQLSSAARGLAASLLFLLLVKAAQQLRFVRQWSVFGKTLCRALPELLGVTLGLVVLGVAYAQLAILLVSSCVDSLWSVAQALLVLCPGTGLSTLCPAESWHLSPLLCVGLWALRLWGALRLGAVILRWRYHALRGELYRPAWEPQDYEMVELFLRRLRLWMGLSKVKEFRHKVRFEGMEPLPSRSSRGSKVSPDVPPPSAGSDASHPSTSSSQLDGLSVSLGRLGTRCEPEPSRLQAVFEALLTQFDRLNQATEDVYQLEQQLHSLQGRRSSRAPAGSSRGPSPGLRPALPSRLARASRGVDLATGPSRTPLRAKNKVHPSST
METRIC NAME: IC50

N#CCc1ccc(Nc2nc(NCCCN)cc(Nc3cc(C4CC4)[nH]n3)n2)cc1 has a reported IC50 of > 10 µM

* * *

biological target: DDR1 (Homo sapiens); construct: endogenous in cells; host or cells: K562; assay: KAM-matrix competition in K562 lysate; assay type: binding; conditions: read-out: RB50 (the source's name)
METRIC NAME: pIC50
Formally, pIC50 is defined as -log10 of the concentration c, with c in mol/L.

N#CCc1ccc(Nc2nc(NCCCN)cc(Nc3cc(C4CC4)[nH]n3)n2)cc1 [KAM] has a reported pIC50 of 5.88

* * *

Molecular target: FAM20B (Homo sapiens)
Construct: endogenous in cells
Sequence (O75063 1-409): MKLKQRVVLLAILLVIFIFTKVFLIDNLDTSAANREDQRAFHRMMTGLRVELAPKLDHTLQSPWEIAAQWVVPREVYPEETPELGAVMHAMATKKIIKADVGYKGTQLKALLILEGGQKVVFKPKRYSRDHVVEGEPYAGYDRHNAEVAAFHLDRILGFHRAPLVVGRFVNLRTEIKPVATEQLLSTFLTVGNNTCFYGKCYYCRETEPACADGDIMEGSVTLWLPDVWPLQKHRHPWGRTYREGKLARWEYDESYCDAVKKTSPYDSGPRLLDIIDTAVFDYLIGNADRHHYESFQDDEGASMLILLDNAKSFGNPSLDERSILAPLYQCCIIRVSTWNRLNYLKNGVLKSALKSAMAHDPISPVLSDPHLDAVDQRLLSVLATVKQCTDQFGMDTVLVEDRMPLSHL
Test: KAM-matrix competition in K562 lysate
Conditions: KAM 0.001-10 uM, read-out: RB50 (the source's name)
pIC50: −log10 of the molar value.
METRIC NAME: pIC50

N#CCc1ccc(Nc2nc(NCCCN)cc(Nc3cc(C4CC4)[nH]n3)n2)cc1 has a reported pIC50 of < 5.00
